B1: FAM50A (parent)
chain: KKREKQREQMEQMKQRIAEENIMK

Variants of: B1
TEST_PROTOCOL: protein stability index of a GFP-peptide fusion (GPS, HEK-293T) (PSI 1-6); higher = more stable;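 also: lentivirally expressed fusions sorted by FACS into six bins by GFP to DsRed ratio, PSI derived from sequencing read proportions per bin multiplied by bin number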
MEASUREMENT_PARAMETERS: c terminus: a fixed tail appended
METRIC: protein stability index

## Input Data request, read-out protein stability index, for `N21I`
## Output 4.17

## Input Next variant: `Q9T`
## Output 4.72

## Input Can you check `E8H` next?
## Output 3.74

## Input Query `K2W` next
## Output 4.58

## Input Also check `I17D`
## Output 5.3

## Input Next up: `E19I`
## Output 2.92

## Input Next variant: `I22G`
## Output 5.2

## Input Request: `A18K`
## Output 3.97

## Input // next record `R16M`
## Output 4.89

## Input Also `R3A` , if possible.
## Output 5.17

## Input Moving on to `Q12E`
## Output 5.28

## Input For `K1W` then?
## Output 4.46

## Input Moving on to the next variant: `I22M`
## Output 5.07

## Input Try this variant too: `R7L`
## Output 4.95

## Input Quick one: `R3S`
## Output 4.78

## Input Another variant to check: `N21R`
## Output 4.35

## Input Another variant: `R16P`
## Output 5.19

## Input Likewise for `E20S` ?
## Output 3.37

## Input And then `M10P` , what is it?
## Output 5.15

## Input Would you kindly repeat that for `Q9K` ?
## Output 4.93

## Input Do the same for `M13C` please
## Output 5.03

## Input Try this variant too: `N21Q`
## Output 5.48

## Input Next entry: `K24Y`
## Output 4.24

## Input Item: `E4H`
## Output 4.38

## Input Please answer likewise for `E11C`
## Output 4.13

## Input Entry to check: `E4L`
## Output 4.21

## Input Param item: `Q12W`
## Output 4.45

## Input Next entry: `E19H`
## Output 4.6

## Input Then `E20A` ?
## Output 4.47

## Input Another: `K24A`
## Output 4.33

## Input One more variant: `R16V`
## Output 5.02

## Input Now this one: `M13I`
## Output 4.29

## Input Then `Q9F` ?
## Output 4.16

## Input `Q9E` ?
## Output 5.18

## Input Also `Q6H` , if possible.
## Output 4.7

## Input Subsequent entry: `K5I`
## Output 4.76

## Input Also check `A18H`
## Output 4.19

## Input Note, next up: `Q6P`
## Output 4.57

## Input Please do the same for `M23C` as well.
## Output 4.83

## Input `M23D` , same question.
## Output 5.14

## Input Now consider `R3E` .
## Output 5.29

## Input Please answer likewise for `I17C`
## Output 4.37

## Input Please do the same for `R16I` as well.
## Output 4.71

## Input Same again, this time with `M13T`
## Output 5.31

## Input What about this variant? `N21W`
## Output 3.91

## Input Proceed to `E19F`
## Output 3.71

## Input Entry to check: `K24E`
## Output 4.85

## Input How about this variant: `I22D`
## Output 5.54

## Input Now give it for `K24N` too.
## Output 4.77

## Input Further, for `R3F` ?
## Output 4.61

## Input Then `E19L` ?
## Output 3.22

## Input And `R3W` ?
## Output 4.25

## Input Now consider `Q6Y` and answer again.
## Output 4.14

## Input What do we get for `M13G` ?
## Output 5.27

## Input Next: `Q12S`
## Output 4.84

## Input Please do the same for `K2H` as well.
## Output 4.98

## Input One more variant: `A18L`
## Output 4.72

## Input Consider next the variant `E4S` in the same way.
## Output 4.47

## Input Also check `K2C`
## Output 4.76

## Input Another variant to check: `K2F`
## Output 4.45

## Input Then what about the variant `A18N` ?
## Output 4.93

## Input Next: `E8M`
## Output 4.58

## Input Same lookup for `Q15S` , please.
## Output 4.9

## Input Cool, now `E8L`
## Output 4.57

## Input Another variant: `Q9W`
## Output 4.13

## Input Similarly, `K2Y` ?
## Output 4.22

## Input Also `E20R` , if possible.
## Output 4.48

## Input Request: `E20F`
## Output 3.79

## Input Do the same for `A18Y` please
## Output 4.43

## Input Cool, now `A18Q`
## Output 5.31

## Input Try `E11H` next.
## Output 4.62

## Input And then `R7K` , what is it?
## Output 4.81

## Input Entry to check: `R7Q`
## Output 5.25

## Input What do you get for `M23S` ?
## Output 5.28

## Input Same thing, different variant: `Q9A`
## Output 4.86

## Input `R3H` ?
## Output 4.65

## Input Now consider `E19N` and answer again.
## Output 4.34

## Input Check `E8F` too.
## Output 4.29

## Input Next up: `Q15E`
## Output 5.51

## Input Here is the next variant: `Q15G`
## Output 4.68

## Input How about this variant: `M13V`
## Output 4.82

## Input Next: `E4R`
## Output 4.32

## Input Same thing, different variant: `R7P`
## Output 4.7

## Input Again, but for `Q15T`
## Output 4.85

## Input Another variant to check: `Q15M`
## Output 4.5

## Input Now the same for `E20N`
## Output 4.44

## Input Follow-up item: `I17P`
## Output 5.52

## Input Again, but for `N21K`
## Output 5.35

## Input Proceed to `R3I`
## Output 5.16

## Input Next variant up: `M13D`
## Output 5.13

## Input Can you check `Q12L` next?
## Output 4.55
